- MEASURED TARGET: Kras and SOS1 (biotin-tagged human Kras loaded with GDP, His-tagged human SOS1) (Homo sapiens, UniProt P01116, G12D)
- Construct: made in house; host or cells: E. coli (stated for Kras only)
- Sequence (P01116 1-188 isoform P01116-2 G12D): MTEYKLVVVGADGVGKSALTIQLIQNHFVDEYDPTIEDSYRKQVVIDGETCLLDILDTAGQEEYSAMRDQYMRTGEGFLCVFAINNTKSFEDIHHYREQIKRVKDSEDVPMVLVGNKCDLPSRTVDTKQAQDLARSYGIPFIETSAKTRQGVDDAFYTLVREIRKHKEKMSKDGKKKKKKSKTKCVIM
- PROCEDURE SUMMARY: Protein-protein interaction inhibition between Kras and SOS1 (KrasGl2D-SOS PPI) using AlphaScreen
- Assay type: binding
- TEST PARAMETERS: AlphaScreen; biotin-tagged human Kras loaded with GDP, His-tagged human SOS1; read-out: KRAS G12D-SOS PPI IC50
pIC50: −log10 of the molar value. Positions of bridges follow the written chain, without caps; N, C: chain ends. Non-standard residues stand in square brackets, D forms with d. Residues, ends and D or L forms follow the SMILES beside them. *: point of attachment. hPhe(3-Cl-4-CF3) = N[C@@H](CCc1ccc(C(F)(F)F)c(Cl)c1)C(=O)O; Abu(4,4,4-F3) = N[C@@H](CC(F)(F)F)C(=O)O; NMeCha = CN[C@@H](CC1CCCCC1)C(=O)O; NMeChg = CN[C@H](C(=O)O)C1CCCCC1; NMeD = CN[C@@H](CC(=O)O)C(=O)O; NMeL = CN[C@@H](CC(C)C)C(=O)O; Piperidide = C1CCN(*)CC1; Ac5c = NC1(C(=O)O)CCCC1; Sar = CNCC(=O)O
MEASURED PARAMETER: pIC50

- CC(C)C[C@H]1C(=O)N[C@@H](CC(F)(F)F)C(=O)N(C)CC(=O)N(C)CC(=O)N(C)[C@@H](CC2CCCCC2)C(=O)N(C)CC(=O)N[C@@H](CCc2ccc(C(F)(F)F)c(Cl)c2)C(=O)N2CCC[C@H]2C(=O)NC2(CCCC2)C(=O)N(C)[C@@H](C2CCCCC2)C(=O)N(C)[C@H](C(=O)N2CCCCC2)CC(=O)N1C [Compound 1744] ([NMeL][Abu(4,4,4-F3)][Sar][Sar][NMeCha][Sar][hPhe(3-Cl-4-CF3)]P[Ac5c][NMeChg][NMeD]-Piperidide; lactam N-11): 8.40

====

- MEASURED TARGET: Kras and SOS1 (biotin-tagged human Kras loaded with GDP, His-tagged human SOS1) (Homo sapiens, UniProt P01116, G12D)
- Construct: made in house; host or cells: E. coli (stated for Kras only)
- PROCEDURE SUMMARY: Protein-protein interaction inhibition between Kras and SOS1 (KrasGl2D-SOS PPI) using AlphaScreen
- Type: binding
- TEST PARAMETERS: AlphaScreen; biotin-tagged human Kras loaded with GDP, His-tagged human SOS1; read-out: KRAS G12D-SOS PPI IC50
Positions of bridges follow the written chain, without caps; N, C: chain ends. Non-standard residues stand in square brackets, D forms with d. Residues, ends and D or L forms follow the SMILES beside them. *: point of attachment. hPhe(3-Cl-4-CF3) = N[C@@H](CCc1ccc(C(F)(F)F)c(Cl)c1)C(=O)O; NMePhe(4-F) = CN[C@@H](Cc1ccc(F)cc1)C(=O)O; Phe(3-I) = N[C@@H](Cc1cccc(I)c1)C(=O)O; NMeAla(cPr) = CN[C@@H](CC1CC1)C(=O)O; NMeCha = CN[C@@H](CC1CCCCC1)C(=O)O; NMeD = CN[C@@H](CC(=O)O)C(=O)O; NMeL = CN[C@@H](CC(C)C)C(=O)O; NMeV = CN[C@H](C(=O)O)C(C)C; NMeA = CN[C@@H](C)C(=O)O; NMeAib = CNC(C)(C)C(=O)O; Piperidide = C1CCN(*)CC1; Pra = C#CC[C@H](N)C(=O)O; Ac5c = NC1(C(=O)O)CCCC1; Aze = O=C(O)[C@@H]1CCN1; Sar = CNCC(=O)O
Each entry below lists one item and its recorded IC50 value.
MEASURED PARAMETER: IC50 (nM)

* CC[C@H](C)[C@@H]1NC(=O)[C@H](CC2CC2)N(C)C(=O)C[C@@H](C(=O)N2CCCCC2)N(C)C(=O)[C@H](C(C)C)N(C)C(=O)C2(CCCC2)NC(=O)[C@@H]2CCCN2C(=O)[C@H](CCc2ccc(C(F)(F)F)c(Cl)c2)NC(=O)CN(C)C(=O)[C@H](CC2CCCCC2)N(C)C(=O)CN(C)C(=O)CN(C)C1=O [Compound 561] ([NMeAla(cPr)]I[Sar][Sar][NMeCha][Sar][hPhe(3-Cl-4-CF3)]P[Ac5c][NMeV][NMeD]-Piperidide; lactam N-11) | 3.4
* C#CC[C@@H]1NC(=O)[C@H](Cc2cccc(I)c2)NC(=O)CN(C)C(=O)[C@H](Cc2ccc(F)cc2)N(C)C(=O)[C@@H]2CCN2C(=O)[C@H](C)N(C)C(=O)[C@H]([C@@H](C)CC)NC(=O)[C@H](CC(C)C)N(C)C(=O)C[C@@H](C(=O)N2CCCCC2)N(C)C(=O)[C@H](CC(C)C)NC(=O)C(C)(C)N(C)C1=O [Compound 1230] ([NMeL]I[NMeA][Aze][NMePhe(4-F)][Sar][Phe(3-I)][Pra][NMeAib]L[NMeD]-Piperidide; lactam N-11) | 98

Origin of the recorded values: patent US12371454B2
